- Tested on: FXR:RXRa (NR concentration 270 nM, RXRa partner concentration 90 nM)
- EXPERIMENTAL PROTOCOL: PBM binding z-score (relative to random genomic background probes); higher = stronger binding; sequences stand for … in GC…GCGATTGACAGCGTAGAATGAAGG
RECORDED ENDPOINT: PBM binding z-score

// query Supply measured PBM binding z-score of GGAACGAGGGGAAAGTTGATAGCATCTGTCGACG in your reply.
// result -0.0769

// query Note PBM binding z-score for the sequence shown: CAAACTAGGTCAAGGTCATAGTCGGTTTGTGCCA
// result 6.58

// query For the sequence TTACCAAGGTGAAGGTCGGTGATCCCTCTGTAGA , give its reported PBM binding z-score.
// result 0.881

// query Look up PBM binding z-score of TCTATTAGTTGATTAGGGCATCCGAAACAGCGGA and report it.
// result 0.685

// query Look up and report measured PBM binding z-score for this entry: TCTTGTAGATCAAGCAGGTTAAGATAGCCTGAGT
// result 0.371

// query For the sequence GTACCAAGGTGAATAGGGCGTTGATGAGTAGGCG , report PBM binding z-score.
// result 0.407

---

Would you mind telling me the reported PBM binding z-score of each entry?
- System: PPARg:RXRa (NR concentration 180 nM, RXRa partner concentration 90 nM)
- EXPERIMENTAL PROTOCOL: PBM binding z-score (relative to random genomic background probes); higher = stronger binding; sequences stand for … in GC…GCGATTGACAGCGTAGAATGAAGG
No unit in the answer, please; the number alone is enough.

// query Dear colleague, please send me the reported PBM binding z-score for ATCGCTAGGTAACAAGTTCAGTGAAAGAGAGGAC when you can.
// result 0.393

// query # return recorded PBM binding z-score for entry CGAACTAGGTCAGAACAGGACAGAGAAGGATGAT
// result 5.04

// query Identify measured PBM binding z-score associated with CGTCCAAGGTCAATGCTAGGACAGTGAAAGCATT
// result 3.96

// query Give PBM binding z-score for the following sequence: GCGACAGGGGCATCAGCAGGTTACCATAACTTAA
// result 0.386

---

- Test system: PPARg DBDmut IVT, anti-PPARg (DBD mutation: PPARg1 K132A/R137A, NR concentration 270 nM)
- EXPERIMENTAL PROTOCOL: PBM binding z-score (relative to random genomic background probes); higher = stronger binding; sequences stand for … in GC…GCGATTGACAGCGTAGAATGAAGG
Please provide measured PBM binding z-score for the entries that follow.
Give your answer as a number; write no unit.

// query Fill in: PBM binding z-score on PPARg DBDmut IVT, anti-PPARg (DBD mutation: PPARg1 K132A/R137A, NR concentration 270 nM), entry ATATGTAGGTTAAGGGTAATTCAGGTTGGTTCGC
// result 1.87

// query Print PPARg DBDmut IVT, anti-PPARg (DBD mutation: PPARg1 K132A/R137A, NR concentration 270 nM) PBM binding z-score for TCTTGTAGATCAAGGGTTAAGAAAGCCGAAGCCT .
// result -0.0594

// query State PBM binding z-score (PPARg DBDmut IVT, anti-PPARg (DBD mutation: PPARg1 K132A/R137A, NR concentration 270 nM)) of CGTCCAAGGTCAAGGTCCGTGAAAGAGACTCGAA .
// result -0.702

// query Give PBM binding z-score for CAAACTAGCTCAAAGGTCAAAGTCGAGCCAACCA tested on PPARg DBDmut IVT, anti-PPARg (DBD mutation: PPARg1 K132A/R137A, NR concentration 270 nM).
// result 0.63

// query Given CCTACCAGGCCAGGGTCACTCAAGCATTTCGCTT , report its PBM binding z-score on PPARg DBDmut IVT, anti-PPARg (DBD mutation: PPARg1 K132A/R137A, NR concentration 270 nM).
// result -1.26

// query # assay system PPARg DBDmut IVT, anti-PPARg (DBD mutation: PPARg1 K132A/R137A, NR concentration 270 nM): give PBM binding z-score of CCTCGAAGGACAACAGGAGGTCAGAGCTGCCAGA
// result -0.537

// query State measured PBM binding z-score of the sequence CGAACTAGGTCAAGGTCAGTGAATCTCCGCACGC with PPARg DBDmut IVT, anti-PPARg (DBD mutation: PPARg1 K132A/R137A, NR concentration 270 nM).
// result 0.259

// query Identify measured PBM binding z-score obtained with PPARg DBDmut IVT, anti-PPARg (DBD mutation: PPARg1 K132A/R137A, NR concentration 270 nM) for CCTACTGGGCAATTCAGAGGTCATTGATCATATG .
// result -0.498

// query Return reported PBM binding z-score for target or system PPARg DBDmut IVT, anti-PPARg (DBD mutation: PPARg1 K132A/R137A, NR concentration 270 nM), item CGAACTAGGTCGGAACAGGACAGTGAAGGATGAT .
// result -0.428

// query # lookup: PPARg DBDmut IVT, anti-PPARg (DBD mutation: PPARg1 K132A/R137A, NR concentration 270 nM) PBM binding z-score, key = TCTATTAGTTGATAAGGGCAACCGAAACAGCGGA
// result 1.07

// query Specify PBM binding z-score for ACTAGCAGGCCAGGTTTGGGTCACTCAAACAAAG , system PPARg DBDmut IVT, anti-PPARg (DBD mutation: PPARg1 K132A/R137A, NR concentration 270 nM).
// result -0.687

// query Tell me PBM binding z-score of ACTCGTAGGACAAAGGTCAGAGCTACGCCAGTGA when tested on PPARg DBDmut IVT, anti-PPARg (DBD mutation: PPARg1 K132A/R137A, NR concentration 270 nM).
// result 0.756

---

Could you please report measured PBM binding z-score for the items listed next?
- System: PPARg:RXRa 90nM:30nM, anti-RXR (NR concentration 90 nM, RXRa partner concentration 30 nM)
- EXPERIMENTAL PROTOCOL: PBM binding z-score (relative to random genomic background probes); higher = stronger binding; sequences stand for … in GC…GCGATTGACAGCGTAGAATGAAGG

// query Answer with the recorded PBM binding z-score for the sequence listed here: ATCTCTAGGTAACAAGTTCAGTGTAAGAGAGGAC
// result 1.48

// query Return PBM binding z-score (reported value) for this sequence: TCTAGCAGGCCACAGGGTCACTCAAGAGGTACGG
// result 2.65

// query Query PBM binding z-score for CCTAGTTGGTCAGGAGGTCACACGCCGGATATGA
// result 2.84

// query Supply reported PBM binding z-score belonging to this sequence: ATCTCTCGGTAACCAAGTTCAGTGAATGCCGAAC
// result 0.0566

// query Using the record for CCGACTGGGGGAGAAAGGTTACCATACCATCCGG , state its measured PBM binding z-score.
// result 6.42

// query Please give measured PBM binding z-score of the following entry: CGAACTAGGTCAAAGGTCAAAGTCGAGCCAACCA
// result 14

// query Assign PBM binding z-score to the following record: ATCGAAAGGTCGAACGTGAGTATACCCACCCGAA
// result 2.12

// query Answer with reported PBM binding z-score of AGTCAAAGTTCAGGACGAAGTAACGTAAAGCACG
// result 3.86

// query Fill in PBM binding z-score for record AGTCAAAGTTCACCAGGTAACGTAAGATTCAGCT
// result 6.1

// query Answer with the recorded PBM binding z-score of CGAACTAGGTGAGAACAGGACAGTGAAGGATGAT only.
// result 1.12

// query Tell me measured PBM binding z-score for CAAACTAGGTCACGAAAGGTCAAGGTCGAATGAC please.
// result 8.5

// query Please supply the value of reported PBM binding z-score for the item TCTGCTAGGTCAGTTGGTCAGCCAACGAGCTGCC
// result 1.51

// query Identify measured PBM binding z-score corresponding to AGAATGAGGTTATACGTAGATCAGTGAAGAAAGT
// result 1.38

// query Complete the entry with PBM binding z-score for ACTAGCAGGCCAAGGGTCAGTCAAGATTAGTCCG
// result 6.62

// query Check the records and state PBM binding z-score for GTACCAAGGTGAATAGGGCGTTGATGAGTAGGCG
// result 0.088

// query Identify the reported PBM binding z-score for the following entry. ATCTCTAGGTAAAGTTCACTGAAAGATCGATAGA
// result 5.65

// query Could you please provide reported PBM binding z-score for ATCTCTAGGTAAAGTACAGTGAAAGATCGATAGA ? Thanks!
// result 0.623

// query Given the sequence CGAACTAAGTCAAGGACAGTGAATCTCCGCACGC , write its reported PBM binding z-score.
// result -0.694

// query Give the value of PBM binding z-score reported for the following: TGGCCTAGGTCATTGGGCCAGTATAGTACGCATC
// result 2.2

// query Indicate its recorded PBM binding z-score; the sequence in question is TCTTGTAGATCGGCAGGTTAAGAAAGCTGGCCAA
// result 2.02

// query Report PBM binding z-score for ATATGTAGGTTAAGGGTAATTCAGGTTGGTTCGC
// result 8.33

// query Fill in PBM binding z-score for record TCATATAGGTAAATGCTAGGTAAAAGTCCGATCT
// result 2.93

// query Tell me PBM binding z-score reported for GCATATAGGTAATACAAGGTGAAAGTTCGATTGT
// result 3.58

// query Specify measured PBM binding z-score for CCTACTGGGCCACGAAAGCTCATTGATTCAGTGA .
// result 0.162

// query Could you please provide reported PBM binding z-score for ATATGTAGTTTACATCCGGGTCATTCAGGCTATG ? Thanks!
// result 1.53

// query Output measured PBM binding z-score for this item: TCTTATAGATCAAAGGTTAAGAAAGCCGAAGCCT
// result 9.15

// query Quote PBM binding z-score reported for CCTACTGGGCAAAAGGTCATTGATTCCAATGCTC please.
// result 9.67

// query Given the sequence GCTAGTTGGTGAGTAAAAGGTCACACACCGGTCG , write its reported PBM binding z-score.
// result 4.99

// query Fill in PBM binding z-score for record GCTAGCAGGCCATTTGGGCCACTCAATGACGGGC
// result -1.19

// query Item TCTTGTAGATCAGCAGGTTAAGAACGCTGGCCAA : provide PBM binding z-score
// result 1.59

// query Quote PBM binding z-score reported for ATATGTAGGTTAGCTAGGGTCATTCAGACTAGGC please.
// result 3.61

// query Supply measured PBM binding z-score of CGTCAAAGTACAACTAAGGTAACGTAAAGCACGC in your reply.
// result 0.467

// query Determine from records and report PBM binding z-score for GCATATAGGTAATACAAGGGGAAAGTCCGATTGT
// result 0.269

// query Report PBM binding z-score for TCTTGTAGACCAATAGAGGTTAAGAAAGTGCGCT
// result 1.93

// query Report measured PBM binding z-score; entry is ACTAGTTGGTCCGCTGAGGTCACACACAATTCGG
// result 1.36

// query Tell me its PBM binding z-score given TCTTGTAGATCAGCAGGTTAAGGAAGCTGGCCAA as the entry.
// result 2.02

// query Kindly indicate its recorded PBM binding z-score. Item: TCTGCTAGGTCAGTTGGTCAGGTAACGAGCTGCC
// result 1.3

// query Determine from records and report PBM binding z-score for ACTAGCAGGCCAAGTTTCGGTCACTCAAACAAAG
// result -0.73

// query Give the measured PBM binding z-score for CCTCGGAGGACAGTAGGTCAGAGCTGTCCGCTTT
// result 0.521

// query # return recorded PBM binding z-score for input CAAGCTAGGTCACCGGAAGGTCAAAGTCCGCATG
// result 4.67

// query # return recorded PBM binding z-score for entry TAGCCTAGGTCGTGCGGGCCAGTATAGTGTCGGC
// result -0.477

// query Tell me measured PBM binding z-score for TTACCAAGGTGAAGGTCGTTGCTCCCTCTGTAGA please.
// result 3.83

// query Provide only the value of recorded PBM binding z-score for CTCGAAAGGTCGTGCTCAGGTTAGTATACCAAAC
// result 2.37

// query Look up and report measured PBM binding z-score for this entry: ACTCGGAGGACAAAGGACAGAGCTACGCCAGTGA
// result 0.942

// query // fetch PBM binding z-score given entry AGTAAAAGTTCAGGACGAGGTAACGTAAAGCACG
// result 1.29

// query Return value of PBM binding z-score for input CGTCCAAGGTCATAGGAGGTCAGTGAGGACAGAT , no commentary.
// result 4.86

// query // fetch PBM binding z-score given entry ATCTCTAGGTAAGACTCCGTTCAGTGAAGAACGC
// result 0.441

// query Identify measured PBM binding z-score associated with CCAGACAGGTGAGAAGGTAAATCAGCCTCGATTA
// result 0.15

// query Complete the entry with PBM binding z-score for AGTCAAAGTTCACTAGGTAACCTAAGATTCAGCT
// result 5.96

// query Dear colleague, please send me the reported PBM binding z-score for GCTGCTAGGTTAGGTTGGTCAGCTAACGGGTACG when you can.
// result -0.625

// query Identify the reported PBM binding z-score for the following entry. TCTTGTAGATCAATAGAGGTTGAGAAAGTGCGCT
// result 1.98
